B1: glmS ribozyme (parent)
chain: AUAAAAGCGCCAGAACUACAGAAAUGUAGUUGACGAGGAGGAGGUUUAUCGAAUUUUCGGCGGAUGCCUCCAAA

# Variants of: B1
# Assay details: self-cleavage kobs at 2500 uM GlcN6P; higher = faster cleavage; RNA array
# Measurement context: with glucosamine-6-phosphate
Variants at the floor of the assay were thinned out.
Catalogue of self-cleavage kobs at 2500 uM GlcN6P values
The reply should contain only the number, in s⁻¹.

Task: For the variant C11A C71U , give its reported self-cleavage kobs at 2500 uM GlcN6P.
Output: 0.000147

Task: Please list self-cleavage kobs at 2500 uM GlcN6P recorded for the variant A14C U69G
Output: 4.06e-05
